- Test system: Saccharomyces cerevisiae
- Run description: Inhibition of yeast alpha-glucosidase at 1 mM pre-incubated for 1 hr followed by p-nitrophenyl-alpha-D-glucopyranoside substrate addition by fluorescence detection based assay
Calls of active or inactive are those of the source. The rule behind the calls is not given here.
Metric name: inhibition

Observe how each entry below is paired with its result.
Exercise: Item O=C(O)[C@]1(CO)NC[C@H](F)[C@H]1O with Saccharomyces cerevisiae - inhibition?
Key: inactive

Exercise: Could you share what inhibition was measured for OCC1(CO)NC[C@H](F)[C@H]1O , tested on Saccharomyces cerevisiae?
Key: inactive

Exercise: Provide value of inhibition for this record tested with Saccharomyces cerevisiae: OCCN1C[C@H](O)[C@@H](O)[C@H](O)[C@H]1CO [MIGLITOL]
Key: inactive

Exercise: Could you share what inhibition was measured for O=C(O)[C@@]1(CO)NC[C@H](F)[C@H]1O , tested on Saccharomyces cerevisiae?
Key: inactive

More entries:
Exercise: Which measured inhibition belongs to OCC1(CO)NC[C@@H](O)[C@H]1O , tested on Saccharomyces cerevisiae?
Key: inactive

Exercise: Reported inhibition for Saccharomyces cerevisiae, given O=C(O)[C@@]1(CO)NC[C@@H](O)[C@H]1O ?
Key: inactive
